# ASSAY NAME: DMT solubility in various solvents (super saturated mixture, HPLC)
# Type: physicochemical
# EXPERIMENTAL CONDITIONS: methanol
MEASURE NAME: solubility

Retrieve solubility measured for `CN(C)CCc1c[nH]c2ccccc12` and print it.
> 98 mg/mL

* * *

# ASSAY NAME: DMT solubility in various solvents (super saturated mixture, HPLC)
# Type: physicochemical
# EXPERIMENTAL CONDITIONS: p-dioxane
MEASURE NAME: solubility

Retrieve solubility measured for CN(C)CCc1c[nH]c2ccccc12 [DMT, N, N-Dimethyltryptamine] and print it.
> 104 mg/mL

* * *

# ASSAY NAME: DMT solubility in various solvents (super saturated mixture, HPLC)
# Format: physicochemical
# EXPERIMENTAL CONDITIONS: Saliva Buffer (pH 6.8)
# Description: Solubility studies of DMT have been carried out in various solvents by preparing super saturated mixture and analyzed using HPLC. This warrants a strong need for improvement solubility of DMT API in the film formulation for better bioavailability.
MEASURE NAME: solubility

Retrieve solubility measured for `CN(C)CCc1c[nH]c2ccccc12` and print it.
2300 µg/mL
